target_or_system: human PI3K isoform beta (p110 beta) (Homo sapiens, UniProt P42338)
Sequence (P42338 whole entry, canonical isoform): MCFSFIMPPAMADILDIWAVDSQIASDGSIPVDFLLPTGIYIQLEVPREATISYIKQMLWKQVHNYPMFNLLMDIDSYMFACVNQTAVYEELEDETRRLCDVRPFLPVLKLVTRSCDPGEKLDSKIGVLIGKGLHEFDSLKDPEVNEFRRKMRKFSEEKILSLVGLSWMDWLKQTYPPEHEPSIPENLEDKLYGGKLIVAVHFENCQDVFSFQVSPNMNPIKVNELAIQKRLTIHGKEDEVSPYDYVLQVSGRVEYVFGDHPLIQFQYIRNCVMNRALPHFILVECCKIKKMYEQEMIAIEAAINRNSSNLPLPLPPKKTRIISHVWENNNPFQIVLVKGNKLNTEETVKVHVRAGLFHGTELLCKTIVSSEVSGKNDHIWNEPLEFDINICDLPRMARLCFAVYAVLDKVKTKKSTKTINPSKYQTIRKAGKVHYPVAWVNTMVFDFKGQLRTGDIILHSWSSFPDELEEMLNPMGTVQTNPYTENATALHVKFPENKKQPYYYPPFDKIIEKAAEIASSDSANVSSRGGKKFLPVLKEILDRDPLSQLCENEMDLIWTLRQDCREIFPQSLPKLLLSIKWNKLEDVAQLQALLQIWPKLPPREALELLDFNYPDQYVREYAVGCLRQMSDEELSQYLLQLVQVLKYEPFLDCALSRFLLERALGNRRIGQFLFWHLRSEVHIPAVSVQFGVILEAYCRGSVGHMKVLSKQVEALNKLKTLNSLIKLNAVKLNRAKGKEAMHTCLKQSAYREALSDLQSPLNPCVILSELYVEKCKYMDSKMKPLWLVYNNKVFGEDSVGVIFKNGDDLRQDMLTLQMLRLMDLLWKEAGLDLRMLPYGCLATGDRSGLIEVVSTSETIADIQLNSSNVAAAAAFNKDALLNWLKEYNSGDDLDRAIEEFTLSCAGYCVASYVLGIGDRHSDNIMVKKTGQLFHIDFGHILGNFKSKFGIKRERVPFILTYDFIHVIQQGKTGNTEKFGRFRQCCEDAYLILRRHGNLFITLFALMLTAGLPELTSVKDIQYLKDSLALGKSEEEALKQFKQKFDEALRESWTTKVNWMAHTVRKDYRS
Sequence (P27986 whole entry partner, canonical isoform): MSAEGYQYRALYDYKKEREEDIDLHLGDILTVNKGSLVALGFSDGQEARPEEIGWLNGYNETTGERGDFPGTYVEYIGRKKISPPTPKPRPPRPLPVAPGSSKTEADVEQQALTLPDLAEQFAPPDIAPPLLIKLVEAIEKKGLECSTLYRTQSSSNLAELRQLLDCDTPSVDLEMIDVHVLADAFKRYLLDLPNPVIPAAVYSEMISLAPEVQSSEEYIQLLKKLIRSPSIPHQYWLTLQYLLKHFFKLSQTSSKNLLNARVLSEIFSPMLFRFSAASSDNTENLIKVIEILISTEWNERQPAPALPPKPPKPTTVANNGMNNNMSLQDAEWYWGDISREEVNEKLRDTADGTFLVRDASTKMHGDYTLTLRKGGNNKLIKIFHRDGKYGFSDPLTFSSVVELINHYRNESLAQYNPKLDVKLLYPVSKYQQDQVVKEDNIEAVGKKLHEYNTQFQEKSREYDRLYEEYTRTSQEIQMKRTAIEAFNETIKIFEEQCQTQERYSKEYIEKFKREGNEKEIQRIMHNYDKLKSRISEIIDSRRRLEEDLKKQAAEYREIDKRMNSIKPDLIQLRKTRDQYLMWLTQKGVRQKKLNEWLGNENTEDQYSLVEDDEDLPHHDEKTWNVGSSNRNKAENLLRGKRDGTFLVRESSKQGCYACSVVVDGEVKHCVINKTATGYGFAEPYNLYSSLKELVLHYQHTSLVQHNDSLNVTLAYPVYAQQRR
assay_explanation: p110 isoform selectivity scintillation proximity assay (beta)
Assay type: biochemical
test_conditions: ratio of IC50 values, SPA, purified human PI3K isoforms
metric_name: alpha/beta (fold potency over beta relative to alpha)

CS(=O)(=O)N1CCN(Cc2cc3c(N4CCOCC4)nc(-c4cccc5[nH]ncc45)nc3o2)CC1 [Compound 141]
<10 fold
OC1CCCN(Cc2cc3nc(-c4cccc5[nH]ncc45)nc(N4CCOCC4)c3s2)C1 (centres unmarked) [Compound 65]
<10 fold
CS(=O)(=O)N1CCN(Cc2cc3c(N4CCOCC4)nc(-c4cnc5[nH]cnc5c4)nc3s2)CC1 [Compound 147]
>10 fold
CS(=O)(=O)N1CCN(Cc2cc3nc(-c4cnc5[nH]cnc5c4)nc(N4CCOCC4)c3s2)CC1 [Compound 144]
<10 fold
CS(=O)(=O)N1CCN(Cc2cc3nc(-c4cncc5ccccc45)nc(N4CCOCC4)c3s2)CC1 [Compound 90]
>10 fold

Quick request: alpha/beta (fold potency over beta relative to alpha) for each listed item, please.
1. O=S(=O)(N1CCOCC1)N1CCN(Cc2cc3nc(-c4cccc5[nH]ncc45)nc(N4CCOCC4)c3s2)CC1 [Compound 28]
2. CS(=O)(=O)N1CCN(Cc2cc3c(N4CCOCC4)nc(-c4cccc5[nH]ncc45)nc3s2)CC1 [Compound 57]
3. CN(C1CCN(Cc2cc3nc(-c4cccc5[nH]ncc45)nc(N4CCOCC4)c3s2)C1)S(C)(=O)=O (centres unmarked) [Compound 58]

[">10 fold", ">10 fold", ">10 fold"]

Quick request: alpha/beta (fold potency over beta relative to alpha) for each listed item, please.
1. Cc1c(CN2CCN(S(C)(=O)=O)CC2)sc2c(N3CCOCC3)nc(-c3cccc4[nH]ncc34)nc12 [Compound 29]
2. C[C@@H]1CN(S(C)(=O)=O)C[C@H](C)N1Cc1cc2nc(-c3cccc4[nH]ncc34)nc(N3CCOCC3)c2s1 [Compound 7]
3. COCCN(Cc1cc2nc(-c3cccc4[nH]ncc34)nc(N3CCOCC3)c2s1)C1CCN(S(C)(=O)=O)CC1 [Compound 34]

1: >10 fold; 2: >10 fold; 3: >10 fold

###

target_or_system: human PI3K isoform delta (p110 delta) (Homo sapiens, UniProt O00329)
Sequence (O00329 whole entry, one chain of several, canonical isoform): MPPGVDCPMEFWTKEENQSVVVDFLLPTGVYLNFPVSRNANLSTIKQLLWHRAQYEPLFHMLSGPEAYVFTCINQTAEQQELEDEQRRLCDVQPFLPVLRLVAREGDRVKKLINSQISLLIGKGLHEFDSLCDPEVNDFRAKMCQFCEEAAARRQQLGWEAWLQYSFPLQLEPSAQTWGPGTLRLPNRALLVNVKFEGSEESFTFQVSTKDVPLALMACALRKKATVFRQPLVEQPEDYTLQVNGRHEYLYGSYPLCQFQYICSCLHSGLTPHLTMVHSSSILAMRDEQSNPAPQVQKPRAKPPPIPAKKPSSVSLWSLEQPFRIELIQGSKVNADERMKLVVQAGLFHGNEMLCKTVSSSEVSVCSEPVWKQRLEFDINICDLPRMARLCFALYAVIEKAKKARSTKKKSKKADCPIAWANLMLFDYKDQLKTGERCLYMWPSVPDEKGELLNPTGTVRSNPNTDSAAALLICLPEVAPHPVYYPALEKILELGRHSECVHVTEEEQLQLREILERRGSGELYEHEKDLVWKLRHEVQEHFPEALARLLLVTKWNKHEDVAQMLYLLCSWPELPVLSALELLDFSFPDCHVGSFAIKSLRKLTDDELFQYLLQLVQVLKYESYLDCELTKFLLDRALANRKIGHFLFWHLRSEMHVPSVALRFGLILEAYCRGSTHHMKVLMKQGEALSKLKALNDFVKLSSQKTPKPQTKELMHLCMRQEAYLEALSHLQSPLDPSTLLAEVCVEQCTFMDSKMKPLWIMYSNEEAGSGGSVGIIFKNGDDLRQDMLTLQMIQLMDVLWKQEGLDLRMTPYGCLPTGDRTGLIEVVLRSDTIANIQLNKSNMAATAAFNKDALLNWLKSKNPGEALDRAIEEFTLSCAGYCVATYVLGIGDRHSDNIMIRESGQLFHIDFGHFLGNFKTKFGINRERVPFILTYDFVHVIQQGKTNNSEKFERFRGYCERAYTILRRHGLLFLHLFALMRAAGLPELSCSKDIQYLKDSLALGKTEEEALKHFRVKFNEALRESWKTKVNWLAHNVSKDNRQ
assay_explanation: p110 isoform selectivity scintillation proximity assay (delta)
Format: biochemical
test_conditions: ratio of IC50 values, SPA, purified human PI3K isoforms
I'd appreciate it if you could supply alpha/delta (fold potency over delta relative to alpha) values for the items below.

Some compounds with known alpha/delta (fold potency over delta relative to alpha) results, for comparison:
C[C@H]1CN(Cc2cc3nc(-c4cccc5[nH]ncc45)nc(N4CCOCC4)c3s2)CCN1S(C)(=O)=O
<10 fold
CS(=O)(=O)N1CCN(Cc2cc3nc(-c4cnc5ccccc5c4)nc(N4CCOCC4)c3s2)CC1
>10 fold

Quick request: alpha/delta (fold potency over delta relative to alpha) for each listed item, please.
1. c1cc(-c2nc(N3CCOCC3)c3sc(CN4CCC(Cn5cccn5)CC4)cc3n2)c2cn[nH]c2c1
2. CS(=O)(=O)N1CCN(Cc2cc3c(N4CCOCC4)nc(-c4cccc5[nH]ncc45)nc3o2)CC1
3. COCCN(Cc1cc2nc(-c3cccc4[nH]ncc34)nc(N3CCOCC3)c2s1)C1CCN(S(C)(=O)=O)CC1
4. CS(=O)(=O)N1CCN(Cc2cc3nc(-c4cnc5[nH]ccc5c4)nc(N4CCOCC4)c3s2)CC1

<10 fold
<10 fold
<10 fold
<10 fold

Source of measurements: patent US9943519B2
